# Tested on: HSP70
# ASSAY_METHOD_TEXT: Expression of heat shock proteins in vitro (Western blotting of Neuro2A lysates)
# Assay type: cell-based
# CONDITION_CONTEXT: Mus musculus, N2a, 10 μM, retinoic acid differentiation, GGTI-298, 24 hrs, signal in the absence of the compounds normalized as 1, read-out: HSP70 Western signal, Compound Dose 10 μM
QUANTITY_MEASURED: fold induction at 10 µM

COMPOUND | QUANTITY_MEASURED | RECORDED_MEASUREMENT
CC(C)=CCC/C(C)=C/CC/C(C)=C/CC/C(C)=C/CC1CCCCC1=O (centres unmarked) [drawing 173] | fold induction at 10 µM | 2.25
CC(=O)CC/C=C(\C)CC/C=C(\C)CCC=C(C)C [drawing 175] | fold induction at 10 µM | 1.79
COC(=O)C(NC(=O)OC(C)CC/C=C(\C)CC/C=C(\C)CCC=C(C)C)C(C)C (centres unmarked) [drawing 179] | fold induction at 10 µM | 1.29
CC(=O)CC/C=C(\C)CC/C=C(\C)CC/C=C(\C)CCC=C(C)C [drawing 178] | fold induction at 10 µM | 2.14
CC(C)=CCC/C(C)=C/CC/C(C)=C/CCC(C)OC(=O)NCC1CCCCC1 (centres unmarked) | fold induction at 10 µM | 2.53
CC/C(=C\CCC(=O)C12CC3CC(CC(C3)C1)C2)CC/C=C(\C)CC/C=C(\C)CCC=C(C)C [drawing 177] | fold induction at 10 µM | 1
CCCCCNC(=O)OC(C)CC/C=C(\C)CC/C=C(\C)CCC=C(C)C (centres unmarked) [drawing 170] | fold induction at 10 µM | 1.93
CC(C)=CCC/C(C)=C/CC/C(C)=C/CC/C(C)=C/CCC1(C)OCCO1 [drawing 172] | fold induction at 10 µM | 3.49
CC(C)=CCC/C(C)=C/CC/C(C)=C/CC/C(C)=C/COC(=O)C1CCCCC1 [drawing 169] | fold induction at 10 µM | 2.53
CC(=O)CC/C=C(\C)CC/C=C(\C)CC/C=C(\C)CC/C=C(\C)CCC=C(C)C [drawing 171] | fold induction at 10 µM | 3.53
CCC(=O)CC/C=C(\CC)CC/C=C(\C)CC/C=C(\C)CCC=C(C)C | fold induction at 10 µM | 4.76
